Source: patent US4416884A

system: Aeromonas hydrophila IFO 12658; assay: antimicrobial activity on bacteria which cause infectious diseases in fish; type: cell-based; conditions: IFO12658, inoculum 10^8, read-out: Minimum Inhibitory Concentration
# MIC per record follows
Dear colleague, please return just the value in µg/mL, with no unit written.

>  <compound>
CCn1cc(C(=O)O)c(=O)c2ccc(C)nc21

>  <experimental_target>
Aeromonas hydrophila IFO 12658

>  <MIC [µg/mL]>
0.8

$$$$
>  <compound>
CC1Cc2c(N3CCNCC3)ccc3c(=O)c(C(=O)O)cn1c23 (stereo not shown)

>  <experimental_target>
Aeromonas hydrophila IFO 12658

>  <MIC [µg/mL]>
0.4

$$$$
>  <compound>
O=C(O)c1cn2c3c(c(N4CCNCC4)ccc3c1=O)CCC2

>  <experimental_target>
Aeromonas hydrophila IFO 12658

>  <MIC [µg/mL]>
1.6

$$$$

# context switch: different compound, same MIC
Field MIC (entry CC1CCc2c(N3CCNCC3)ccc3c(=O)c(C(=O)O)cn1c23 (stereo not shown) ) reads 0.2
